Study the reported Ki values for Bcl-2-like protein 1 (Homo sapiens) given below; they originate from different publications.

[
  {
    "molecule": "CC1(C)CCC(CN2CCN(c3ccc(C(=O)NS(=O)(=O)c4ccc(NC[C@H]5CC[C@](C)(O)CC5)c([N+](=O)[O-])c4)c(Oc4cnc5[nH]ccc5c4)c3)CC2)=C(c2ccc(Cl)cc2)C1",
    "recorded-result": "0.016 µM"
  }
]

(Q) # Ki lookup, item CCOc1c(CN2O[C@@H](CO)[C@@H]([C@H](C)O)[C@H]2C(=O)N[C@H]2C[C@H]3C[C@@H]([C@@H]2C)C3(C)C)cccc1-c1cc(C(=O)N[C@H](CN(C)C)CC(C)(C)C)cc(N(C)C)c1
(A) < 1 µM

(Q) # Ki lookup, item CNC(=O)c1cc(-c2cccc(CN3O[C@@H](CNCC4CC4)[C@@H]([C@H](C)O)[C@H]3C(=O)N[C@H]3C[C@H]4C[C@@H]([C@@H]3C)C4(C)C)c2OC)cc(N(C)C)c1
(A) 5 to 10 µM

(Q) # Ki lookup, item C[C@@H]1[C@@H](NC(=O)[C@@H]2[C@H]([C@H](C)O)[C@H](CO)ON2Cc2cccc(-c3cc(C(=O)N[C@@H](Cc4ccccc4)CN(C)C)cc(N(C)C)c3)c2OCC2CC2)C[C@H]2C[C@@H]1C2(C)C
(A) < 1 µM

(Q) # Ki lookup, item CCOc1c(CN2O[C@@H](CO)[C@@H]([C@H](C)O)[C@H]2C(=O)N[C@H]2C[C@H]3C[C@@H]([C@@H]2C)C3(C)C)cccc1-c1cc(C(=O)N[C@H](Cc2ccccc2)CN(C)C)cc(N(C)C)c1
(A) < 1 µM

(Q) # Ki lookup, item CNC(=O)c1cc(-c2cccc(CN3O[C@@H](CN(CC(C)C)CC(C)C)[C@@H]([C@H](C)O)[C@H]3C(=O)N[C@H]3C[C@H]4C[C@@H]([C@@H]3C)C4(C)C)c2OC)cc(N(C)C)c1
(A) 5 to 10 µM

(Q) # Ki lookup, item CCOC(=O)c1c(C)oc2c1c(C(c1ccncc1)N1CCN(C(C)C)CC1)c(O)c1ccccc12 (stereo not drawn)
(A) > 30 µM

----------
Study the reported Ki values for Bcl-2-like protein 1 (Homo sapiens) given below; they originate from different publications.

Some solved entries appear below for comparison.
[
  {
    "compound": "CCNC[C@@H]1ON(Cc2cccc(-c3cc(C(=O)NC)cc(N(C)C)c3)c2OC)[C@H](C(=O)N[C@H]2C[C@H]3C[C@@H]([C@@H]2C)C3(C)C)[C@@H]1[C@H](C)O",
    "study-target": "Bcl-2-like protein 1 (Homo sapiens)",
    "Ki": "> 10 µM"
  },
  {
    "compound": "Cc1c(S(C)(=O)=O)c(-c2cc(F)cc(N3CCN(c4ccc(NS(=O)(=O)c5ccc(N[C@H](CCN6CCC(O)CC6)CSc6ccccc6)c(S(=O)(=O)C(F)(F)F)c5)cc4)CC3)c2)c(-c2ccc(F)cc2)n1C(C)C",
    "study-target": "Bcl-2-like protein 1 (Homo sapiens)",
    "Ki": "0.000149 µM"
  },
  {
    "compound": "CNC(=O)c1cc(-c2cccc(CN3O[C@@H](CNCc4ccccc4)[C@@H]([C@H](C)O)[C@H]3C(=O)N[C@H]3C[C@H]4C[C@@H]([C@@H]3C)C4(C)C)c2OC)cc(N(C)C)c1",
    "study-target": "Bcl-2-like protein 1 (Homo sapiens)",
    "Ki": "5 to 10 µM"
  },
  {
    "compound": "COC[C@@H](Cc1ccccc1)NC(=O)c1cc(-c2cccc(CN3O[C@@H](CO)[C@@H]([C@H](C)O)[C@H]3C(=O)N[C@H]3C[C@H]4C[C@@H]([C@@H]3C)C4(C)C)c2OC)cc(N(C)C)c1",
    "study-target": "Bcl-2-like protein 1 (Homo sapiens)",
    "Ki": "5 to 10 µM"
  }
]

(Q) Reported Ki for Bcl-2-like protein 1 (Homo sapiens), given CCOC(=O)c1c(C)oc2c1c(C(c1ccncc1)N1CCN(C)CC1)c(O)c1ccccc12 (centres unmarked) ?
(A) > 30 µM

(Q) Reported Ki for Bcl-2-like protein 1 (Homo sapiens), given COc1c(CN2O[C@@H](CN(C)C)[C@@H]([C@H](C)O)[C@H]2C(=O)N[C@H]2C[C@H]3C[C@@H]([C@@H]2C)C3(C)C)cccc1-c1cc(C(=O)NCCc2ccccc2)cc(N(C)C)c1 ?
(A) 5 to 10 µM

(Q) Reported Ki for Bcl-2-like protein 1 (Homo sapiens), given COc1c(CN2O[C@@H](CO)[C@@H]([C@H](C)O)[C@H]2C(=O)N[C@H]2C[C@H]3C[C@@H]([C@@H]2C)C3(C)C)cccc1-c1cc2c(c(C(=O)N[C@H](CN(C)C)CC(C)(C)C)c1)OC(C)(C)C2 ?
(A) < 1 µM

(Q) Reported Ki for Bcl-2-like protein 1 (Homo sapiens), given COc1c(CN2O[C@@H](CO)[C@@H]([C@H](C)O)[C@H]2C(=O)N[C@H]2C[C@H]3C[C@@H]([C@@H]2C)C3(C)C)cccc1-c1cc(C(=O)N[C@@H](CC(C)C)CN(C)C)cc([N+](=O)[O-])c1 ?
(A) < 1 µM

(Q) Reported Ki for Bcl-2-like protein 1 (Homo sapiens), given COc1c(CN2O[C@@H](CO)[C@@H]([C@H](C)O)[C@H]2C(=O)N[C@H]2C[C@H]3C[C@@H]([C@@H]2C)C3(C)C)cccc1-c1cc(C(=O)N[C@@H](CC(C)C)CN(C)C)cc(N(C)CC(C)C)c1 ?
(A) < 1 µM

(Q) Reported Ki for Bcl-2-like protein 1 (Homo sapiens), given CNC(=O)c1cc(-c2cccc(CN3O[C@@H](CNCc4ccncc4)[C@@H]([C@H](C)O)[C@H]3C(=O)N[C@H]3C[C@H]4C[C@@H]([C@@H]3C)C4(C)C)c2OC)cc(N(C)C)c1 ?
(A) > 10 µM

(Q) Reported Ki for Bcl-2-like protein 1 (Homo sapiens), given COc1c(CN2O[C@@H](CO)[C@@H]([C@H](C)O)[C@H]2C(=O)N[C@H]2C[C@H]3C[C@@H]([C@@H]2C)C3(C)C)cccc1-c1cc(C(=O)N[C@@H](CCc2ccccc2)CN(C)C)cc([N+](=O)[O-])c1 ?
(A) < 1 µM
